Please respond with reported apparent KD of K4 kissing-loop reporter for every item in the list.
Test system: K4 kissing-loop RNA reporter;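 also: bound reporter read as fluorescence of individual clusters on recovered sequencing chips by microscopy, with normalized cluster intensities fitted with a binding model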
experimentalProtocol: apparent KD of K4 kissing-loop reporter; higher = weaker reporter binding
measurementParameters: Eterna round: R107; input ligand: none
Numbers only here, please. The scale is nM.

Lab book: apparent KD of K4 kissing-loop reporter of CUCGAGUGAUGUUCGAUUAUGUAUACAGAUACCAGUGAAUUUUAACACCCUUGGCAGCUGGUAGAAUCUUUGUAAUUUUAACUAG [JR_ExcTheophyA_Sub002] noted as 180

Lab book: apparent KD of K4 kissing-loop reporter of CGCGCGCGUUGAGAGGCGCGCGCGAAUGAUACCAGUAUAUAAGAAUACCCUUGGCAGCAUAAGAAAGAUAUAGUGAUGUUGUAUA [SSTheophA.E] noted as 293

Lab book: apparent KD of K4 kissing-loop reporter of AAUAUAAAGCAGUGAUGUUGCUUAUGAGAAGGAGCGCACGAAAGUGCAGGUAGGUCGCUCAGCCAAGUGGACGAAAACGUCCACA [whbob_SS_Arginine_A_sa106] noted as 86.3

Lab book: apparent KD of K4 kissing-loop reporter of AAUUUAUUAACUGAUACCAGACUUAAUGAAUUGUAAAUUACUAGUGAUGUUAGUGAAUCUGUCCCUUGGCAGCAGUAUUUAUUAA [JR_ExcTheophyB_Sub010] noted as 173

Lab book: apparent KD of K4 kissing-loop reporter of UGCUUUAUCAGAAGGAGCGCGUUGGUCAUAAUAAUAAUCAGUGAUGUUGAUAUAUGAGGAUUGCAGGUAGGUCGCUGAUAUAGCU [KL-XARG-B1] noted as 390

Lab book: apparent KD of K4 kissing-loop reporter of `GGUAGCAUGGCGGCCGCCACUUCAAUUGGAGUGAUGUUCCAAGGCAUCGCGAAAGCGAUGCCAGGAAGGACCGGGCCAUGCUACC` noted as 306

Lab book: apparent KD of K4 kissing-loop reporter of AGUGAUGUGGGAAGGAGCGGUAGAUGAGUUCAGUGAUGUUGAAGUGAUGCUGUAGUGAUGUGCCAGGUAGGUCGCCUAGAUGUUA [KL-XARG B24] noted as 258

Lab book: apparent KD of K4 kissing-loop reporter of `UGAUAGGACAGAAGGAGCGGAAGUGAUGUUUCCAAAAGGCUAAGGUGUCAAAAGACACCCUUCCAGGUAGGUCGCUGUCCUAUCU` noted as 221

Lab book: apparent KD of K4 kissing-loop reporter of GUGUAGAAGUGAGGAUAUCGAUUUAAGAAUAAGCAGUGAUGUUGCAAGCAGGAGGAAUAAGAUUAACGAGAAGGCGUGGAUAUAG [FMN B Exclusion; Euphoria Solution] noted as 125

Lab book: apparent KD of K4 kissing-loop reporter of UAGUCCUAGUGAUGGUCAUCACGUGGCGGGCGAGGACCGGUACGGCCGCCACUCGACUUUGCAGUGAUGUUGCAAACCGGACAAU [Exclusion - Tryptophan A (Freestyle 20)] noted as 132

Lab book: apparent KD of K4 kissing-loop reporter of `GCUACUGCCUUAGGAUAUAGUUGAGUGAUGUUCAAGCAUAUGCAUGGGAAAACCAUGCAUAUGUCCCUAGAAGGGAGGCAGUAGC` noted as 859

Lab book: apparent KD of K4 kissing-loop reporter of ACGAUCAUGUCGGCCGCCACUGAGAGUAGUGAUGUUACUUUUAUGUUUUAGUUAUAAUAUUUGAACAGGACCGGGACAUGUUCGU [JR_ExcTryptoB_Sub023] noted as 85.3
